The reported measurements were obtained from patent US8188078B2.

assay-system: MET (Homo sapiens, UniProt P08581)
Construct: endogenous in cells
Sequence (P08581 25-1390): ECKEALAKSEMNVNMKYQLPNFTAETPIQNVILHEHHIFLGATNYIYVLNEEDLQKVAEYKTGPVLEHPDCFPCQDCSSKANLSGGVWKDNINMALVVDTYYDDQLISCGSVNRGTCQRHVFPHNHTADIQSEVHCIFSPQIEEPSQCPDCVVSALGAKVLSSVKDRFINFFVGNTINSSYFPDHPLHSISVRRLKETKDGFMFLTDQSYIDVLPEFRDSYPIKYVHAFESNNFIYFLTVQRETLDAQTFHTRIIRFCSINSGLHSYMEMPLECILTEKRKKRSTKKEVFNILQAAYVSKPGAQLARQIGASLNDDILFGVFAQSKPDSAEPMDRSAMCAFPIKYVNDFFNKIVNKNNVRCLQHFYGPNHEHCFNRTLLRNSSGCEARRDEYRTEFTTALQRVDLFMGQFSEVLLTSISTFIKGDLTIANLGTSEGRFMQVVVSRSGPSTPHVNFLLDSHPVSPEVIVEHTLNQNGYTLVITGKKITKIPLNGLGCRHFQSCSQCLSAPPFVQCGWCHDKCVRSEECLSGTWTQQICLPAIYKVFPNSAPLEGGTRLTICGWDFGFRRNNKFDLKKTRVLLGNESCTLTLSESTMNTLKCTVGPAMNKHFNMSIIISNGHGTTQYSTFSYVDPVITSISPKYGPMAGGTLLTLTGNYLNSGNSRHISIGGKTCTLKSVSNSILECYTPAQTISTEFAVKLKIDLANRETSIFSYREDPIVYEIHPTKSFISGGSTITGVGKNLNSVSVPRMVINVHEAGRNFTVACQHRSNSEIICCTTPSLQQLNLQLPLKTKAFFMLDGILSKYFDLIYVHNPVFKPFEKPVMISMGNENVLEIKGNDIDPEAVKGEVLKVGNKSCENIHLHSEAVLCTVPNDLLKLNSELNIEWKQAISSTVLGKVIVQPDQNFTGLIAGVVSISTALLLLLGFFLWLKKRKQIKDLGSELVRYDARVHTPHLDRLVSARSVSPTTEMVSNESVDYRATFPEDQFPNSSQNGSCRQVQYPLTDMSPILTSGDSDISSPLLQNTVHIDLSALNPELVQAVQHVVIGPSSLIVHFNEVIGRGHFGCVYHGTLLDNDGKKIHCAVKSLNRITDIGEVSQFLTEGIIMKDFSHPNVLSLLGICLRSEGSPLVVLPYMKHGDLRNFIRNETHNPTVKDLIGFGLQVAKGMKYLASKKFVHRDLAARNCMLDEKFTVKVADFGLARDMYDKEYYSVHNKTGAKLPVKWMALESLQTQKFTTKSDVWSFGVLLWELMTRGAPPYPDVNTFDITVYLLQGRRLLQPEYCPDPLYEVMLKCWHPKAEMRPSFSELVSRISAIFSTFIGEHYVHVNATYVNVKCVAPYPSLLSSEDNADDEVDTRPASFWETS
test-name: Test C: inhibition of the autophosphorylation of MET, ELISA technique (pppY1230, 1234, 1235), MKN45 cells
pIC50: −log10 of the molar value.
Attribute: pIC50

A selection of reference data follows.
q: Need pIC50, item CC(Oc1ccc2nc(NC(=O)NCCCN3CCN(Cc4ccccc4)CC3)sc2c1)c1c(Cl)ccc(F)c1Cl (centres unmarked)
a: > 6.30

q: Same again, this time with CC(Oc1ccc2nc(NC(=O)NCCN3CCCCC3)sc2c1)c1c(Cl)ccc(F)c1Cl (centres unmarked)
a: > 6.30

q: Same again, this time with CC(Oc1ccc2nc(NC(=O)NCCN3CCOCC3)sc2c1)c1c(Cl)ccc(Cl)c1Cl (centres unmarked)
a: > 6.30

q: Same again, this time with COCCOC(=O)Nc1nc2cc(F)c(OC(C)c3c(Cl)ccc(F)c3Cl)cc2s1 (centres unmarked)
a: 5.00 to 6.30

q: Same again, this time with CC(Oc1ccc2nc(NC(=O)NCCN3CCOCC3)sc2c1)c1c(F)ccc(Cl)c1Cl (centres unmarked)
a: > 6.30

q: Same again, this time with CC(Oc1cc2sc(NC(=O)CN3CCNCC3)nc2cc1F)c1c(Cl)ccc(F)c1Cl (centres unmarked)
a: > 6.30

q: Same again, this time with CC(Oc1cc2sc(NC(=O)NCCN3CCN(C)CC3)nc2cc1F)c1c(Cl)ccc(F)c1Cl (single isomer, unassigned) [Example 77]
a: 5.00 to 6.30

// below: pIC50 requested for another compound
q: Need pIC50, item CC(Oc1ccc2nc(NC(=O)NCCN3CCOCC3)sc2c1)c1c(F)ccc(F)c1F (centres unmarked)
a: 5.00 to 6.30

* * *

assay-system: MET (Homo sapiens, UniProt P08581)
Construct: endogenous in cells
test-name: Test C: inhibition of the autophosphorylation of MET, ELISA technique (pppY1230, 1234, 1235), MKN45 cells
pIC50: −log10 of the molar value.
readout-kind: pIC50

q: Need pIC50, item CC(Oc1cc2sc(NC(=O)NCCN)nc2cc1F)c1c(Cl)ccc(F)c1Cl (stereo not shown) [Example 88]
a: > 6.30

q: Same again, this time with Cc1ccc(F)c(C(C)Oc2ccc3nc(NC(=O)NCCN4CCOCC4)sc3c2)c1Cl (stereo not shown)
a: 5.00 to 6.30

q: Same again, this time with CC(Oc1ccc2nc(NC(=O)NCCN3CCOCC3)sc2c1)c1c(F)cccc1F (stereo not shown)
a: 5.00 to 6.30

q: Same again, this time with CC(Oc1ccc2nc(NC(=O)NCCN3CCOCC3)sc2c1)c1c(Cl)cccc1Cl (stereo not shown)
a: 5.00 to 6.30

q: Same again, this time with CC(Oc1ccc2nc(NC(=O)NCCCN3CCOCC3)sc2c1)c1c(Cl)ccc(F)c1Cl (stereo not shown)
a: > 6.30

q: Same again, this time with CC(Oc1ccc2nc(NC(=O)NCCN3CCC(Cc4ccccc4)CC3)sc2c1)c1c(Cl)ccc(F)c1Cl (stereo not shown)
a: 5.00 to 6.30

q: Same again, this time with CC(Oc1cc2sc(NC(=O)NCCN3CCCC3)nc2cc1F)c1c(Cl)ccc(F)c1Cl (stereo not shown) [Example 84]
a: > 6.30

q: Same again, this time with CC(Oc1ccc2nc(NC(=O)NCCCN(C)C)sc2c1)c1c(Cl)ccc(F)c1Cl (stereo not shown)
a: > 6.30

q: Same again, this time with CCOCCNC(=O)Nc1nc2cc(F)c(OC(C)c3c(Cl)ccc(F)c3Cl)cc2s1 (stereo not shown)
a: > 6.30

q: Same again, this time with Cc1cc2nc(NC(=O)NCCN3CCOCC3)sc2cc1OC(C)c1c(Cl)ccc(F)c1Cl (stereo not shown)
a: > 6.30

Further cases:
q: Need pIC50, item CC(Oc1ccc2nc(NC(=O)NCCN3C(C)CCCC3C)sc2c1)c1c(Cl)ccc(F)c1Cl (stereo not shown)
a: > 6.30

q: Same again, this time with CC(Oc1cc2sc(NC(=O)NCCC3CCCN3C)nc2cc1F)c1c(Cl)ccc(F)c1Cl (stereo not shown)
a: > 6.30

q: Same again, this time with `O=C(NCCN1CCOCC1)Nc1nc2cc(F)c(OCc3c(Cl)cccc3Cl)cc2s1`
a: 5.00 to 6.30

q: Same again, this time with CC(Oc1ccc2nc(NC(=O)NCCC3CCCN3C)sc2c1)c1c(Cl)ccc(F)c1Cl (stereo not shown)
a: > 6.30

q: Same again, this time with CC(Oc1cc2sc(NC(=O)NCCN3CCCC3)nc2cc1F)c1c(F)ccc(Cl)c1Cl (stereo not shown) [Example 118]
a: > 6.30
